// reported Kd per item
# assayedSystem: T1, recombinant human PVRIG-human IgG1 Fc fusion protein (human)
# T1 construct: no linker is told; also called human PVRIG-Fc fusion protein
# T1 sequence (chain, as listed by the source limits assumed): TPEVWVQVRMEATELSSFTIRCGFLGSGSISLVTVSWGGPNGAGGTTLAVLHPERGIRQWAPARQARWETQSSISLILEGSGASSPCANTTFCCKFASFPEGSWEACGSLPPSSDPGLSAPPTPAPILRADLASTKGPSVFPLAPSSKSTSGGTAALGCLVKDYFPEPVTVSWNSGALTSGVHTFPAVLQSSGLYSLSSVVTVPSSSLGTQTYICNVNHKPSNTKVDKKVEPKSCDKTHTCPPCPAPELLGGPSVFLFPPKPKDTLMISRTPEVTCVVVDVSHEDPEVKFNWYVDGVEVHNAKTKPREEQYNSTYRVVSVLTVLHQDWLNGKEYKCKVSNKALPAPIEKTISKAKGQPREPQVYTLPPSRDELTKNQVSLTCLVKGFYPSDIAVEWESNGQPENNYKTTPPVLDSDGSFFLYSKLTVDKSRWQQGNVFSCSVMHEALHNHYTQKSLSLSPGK
# protocolSummary: SPR (Biacore), human PVRIG-human IgG1 Fc on chip, antibody in flow, 1:1 model

Below: 4 binders and their reported Kd.
>>> assayvalue("Antibody 4-hu11 (antibody, human IgG4 S228P, kappa, V domains shown, Humanized Antibody 4; heavy chain IgG4 with S228P already in the entry) VH: EVQLVQSGAEVKKPGSSVKVSCKASGYTFSSFSIEWVRQAPGQGLEWIGEILPGSNSTNYNEKFKGKATFTADTSTNTAYMELSSLRSEDTAVYYCSSYWFAYWGQGTLVTVSS VL: DIVMTQSPDSLAVSLGERATINCKSSQSLLNSGNQKNYLAWYQQKPGQPPKLLIYGASTRESGVPDRFSGSGSGTDFTLTISSLQAEDVAVYYCQNAHSYPPTFGQGTKLEIKR")
"≤ 4.22 pM"
>>> assayvalue("Antibody 4 (antibody, V domains shown, Murine monoclonal antibody from hybridoma ascites; Used AF647-labelled in several flow cytometry assays; also called murine antibody (Antibody 4); murine Antibody 4) VH: QVQLQQSGAELVKPGASVKISCKATGYTFSSFSIEWVKQRPGHGLAWIGEILPGSNSTNYNEKFKGKATFTADTSSNTAYMQLSSLTSEDSAVYYCSSYWFAYWGQGTLVTVSA VL: DIVMTQSPSSLSVSAGEKVTMSCKSSQSLLNSGNQKNYLAWYQQKPGQPPKLLIYGASTRESGVPDRFTGSGSGTDFTLTISSVQAEDLAVYYCQNAHSYPPTFAAGTKLELK")
"≤ 4.1 pM"
>>> assayvalue("Antibody 4-hu10 (antibody, human IgG4 S228P, kappa, V domains shown, Humanized Antibody 4; heavy chain IgG4 with S228P already in the entry) VH: EVQLVQSGAEVKKPGSSVKVSCKASGYTFSSFSIEWVRQAPGQGLEWIGEILPGSNSTNYNEKFKGRVTFTADTSTNTAYMELSSLRSEDTAVYYCSSYWFAYWGQGTLVTVSS VL: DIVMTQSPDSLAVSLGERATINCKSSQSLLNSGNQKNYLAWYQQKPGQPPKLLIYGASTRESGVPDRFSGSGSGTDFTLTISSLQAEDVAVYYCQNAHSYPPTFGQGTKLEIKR")
"≤ 4 pM"
>>> assayvalue("Antibody 4-hu6 (antibody, human IgG4 S228P, kappa, V domains shown, Humanized Antibody 4; heavy chain IgG4 with S228P already in the entry; also called Antibody 4-hub [sic]) VH: EVQLVQSGAEVKKPGSSVKVSCKASGGTFSSFSIEWVRQAPGQGLEWIGEILPGSNSTNYNEKFKGKATFTADTSTNTAYMELSSLRSEDTAVYYCSSYWFAYWGQGTLVTVSS VL: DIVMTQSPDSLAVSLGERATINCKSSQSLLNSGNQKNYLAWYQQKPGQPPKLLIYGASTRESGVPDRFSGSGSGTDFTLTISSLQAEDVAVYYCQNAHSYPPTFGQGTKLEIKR")
"≤ 3.56 pM"

# next binder below
## Input Kd lookup needed for Antibody 3 (antibody, V domains shown, Murine monoclonal antibody from hybridoma ascites; also called murine antibody Antibody 3) VH: EVQLQQSGPELVKPGASMKISCKASGYSFTAYTMNWVKQSHGKNLEWIGLINPYNGGTSYNQKFKGKATLTGDKSSSTAYMELLSVTSEDSAVYFCAREGNYYGSRGDFDYWGQGTTLTVSS VL: DILLTQSPAILSVSPGERVSFSCRASQTIVTNILWYQQRTNGSPRLLIRYASESISGIPSRFSGSGSGTDFTLSINSVESEDIAHYYCQQSHSWPFTFGSGTKLEIK , thanks.
## Output 990 pM
